src = patent US20160264593A1

- Experiment description: Pharmacokinetic study of 157 (and metabolite endothal) in SD rats, iv and po; plasma, liver, brain
- Assay type: in vivo
- Test parameters: female, SD (Sprague-Dawley), in vivo; 157 in plasma, IV 1.5 mg/kg, rat 1; read-out: Tmax
Result type: Tmax (min)
Give the value in min but do not write min after it.

Name the reported Tmax value associated with the molecule CCCCCCCOC(=O)C1C2CCC(O2)C1C(=O)N1CCN(C)CC1 (stereo not shown) [Compound 157]
15

* * *

- Experiment description: Pharmacokinetic study of 157 (and metabolite endothal) in SD rats, iv and po; plasma, liver, brain
- Assay type: in vivo
- Test parameters: female, Sprague-Dawley (SD), rat, in vivo, iv, 1.5 mg/kg, 157 in Brain, iv 1.5 mg/kg, rat 2; read-out: Cmax
Result type: Cmax (ng/g)
Give the value in ng/g but do not write ng/g after it.

Name the reported Cmax value associated with the molecule CCCCCCCOC(=O)C1C2CCC(O2)C1C(=O)N1CCN(C)CC1 (stereo not shown) [Compound 157]
60

* * *

- Experiment description: Pharmacokinetic study of 153 (and metabolite endothal) in SD rats, iv and po; plasma, liver, brain
- Format: in vivo
- Test parameters: female, Sprague-Dawley (SD), rat, in vivo, iv, 1.25 mg/kg, Liver, 1.25 mg/kg IV, Mean; read-out: T1/2 (converted)
Result type: half-life
Quote the value and follow it with the unit of measurement.

Name the reported half-life value associated with the compound CCCOC(=O)C1C2CCC(O2)C1C(=O)N1CCN(C)CC1 (stereo not shown)
37.6 min

* * *

- Experiment description: Pharmacokinetic study of 153 (and metabolite endothal) in SD rats, iv and po; plasma, liver, brain
- Assay type: in vivo
- Test parameters: female, Sprague-Dawley (SD), rat, in vivo, iv, 1.25 mg/kg, Brain, 1.25 mg/kg IV, rat 2; read-out: T1/2 (converted)
Result type: half-life (min)
Give the value in min but do not write min after it.

Name the reported half-life value associated with the compound CCCOC(=O)C1C2CCC(O2)C1C(=O)N1CCN(C)CC1 (stereo not shown) [Compound 153]
37.7

* * *

- Experiment description: Pharmacokinetic study of 157 (and metabolite endothal) in SD rats, iv and po; plasma, liver, brain
- Format: in vivo
- Test parameters: female, Sprague-Dawley (SD), rat, in vivo, po, 1.5 mg/kg, PO 1.5 mg/kg, 2 hr, Rat 1; read-out: 157 plasma concentration
Result type: concentration at 2 h (ng/mL)
Give the value in ng/mL but do not write ng/mL after it.

Name the reported concentration at 2 h value associated with the compound CCCCCCCOC(=O)C1C2CCC(O2)C1C(=O)N1CCN(C)CC1 (stereo not shown) [Compound 157]
0.303

* * *

- Experiment description: Pharmacokinetic study of 153 (and metabolite endothal) in SD rats, iv and po; plasma, liver, brain
- Format: in vivo
- Test parameters: female, SD, rat, in vivo, iv, 1.25 mg/kg, iv 1.25 mg/kg, 2 hr, Rat 2; read-out: 153 brain concentration
Result type: concentration at 2 h (ng/g)
Give the value in ng/g but do not write ng/g after it.

Name the reported concentration at 2 h value associated with the compound CCCOC(=O)C1C2CCC(O2)C1C(=O)N1CCN(C)CC1 (stereo not shown) [Compound 153]
4.75

* * *

- Experiment description: Pharmacokinetic study of 153 (and metabolite endothal) in SD rats, iv and po; plasma, liver, brain
- Assay type: in vivo
- Test parameters: female, SD, rat, in vivo, po, 1.25 mg/kg, PO per title, 1.25 mg/kg, 0.25 hr, Rat 2; read-out: 153 liver concentration
Result type: concentration at 0.25 h

Name the reported concentration at 0.25 h value associated with the compound CCCOC(=O)C1C2CCC(O2)C1C(=O)N1CCN(C)CC1 (stereo not shown)
652 ng/g

* * *

- Experiment description: Pharmacokinetic study of 153 (and metabolite endothal) in SD rats, iv and po; plasma, liver, brain
- Type: in vivo
- Test parameters: female, SD, rat, in vivo, iv, 1.25 mg/kg, 153 in plasma, IV 1.25 mg/kg, rat 2; read-out: T1/2 (converted)
Result type: half-life (min)
Give the value in min but do not write min after it.

Name the reported half-life value associated with the molecule CCCOC(=O)C1C2CCC(O2)C1C(=O)N1CCN(C)CC1 (stereo not shown)
56

* * *

- Experiment description: Pharmacokinetic study of 157 (and metabolite endothal) in SD rats, iv and po; plasma, liver, brain
- Type: in vivo
- Test parameters: female, Sprague-Dawley (SD), rat, in vivo, po, 1.5 mg/kg, PO 1.5 mg/kg, 1 hr, Mean; read-out: 157 plasma concentration
Result type: concentration at 1 h

Name the reported concentration at 1 h value associated with the compound CCCCCCCOC(=O)C1C2CCC(O2)C1C(=O)N1CCN(C)CC1 (stereo not shown) [Compound 157]
1.37 ng/mL

* * *

- Experiment description: Pharmacokinetic study of 100 (and metabolite endothal) in SD rats, iv; plasma, liver, brain
- Test parameters: female, SD, rat, in vivo, iv, 1.5 mg/kg, Endothal liver concentration, 100 iv 1.5 mg/kg, SD rats, 1 hr, mean
Result type: concentration at 1 h (ng/g)
Give the value in ng/g but do not write ng/g after it.

Name the reported concentration at 1 h value associated with the compound O=C(O)C1C2CCC(O2)C1C(=O)O (stereo not shown) [Endothal]
2920

* * *

- Experiment description: in vivo
- Test parameters: female, Sprague-Dawley (SD), rat, in vivo, iv, 1.5 mg/kg, 100 liver concentration
Result type: concentration at 2 h (ng/g)
Give the value in ng/g but do not write ng/g after it.

Name the reported concentration at 2 h value associated with the molecule CN1CCN(C(=O)C2C3CCC(O3)C2C(=O)O)CC1 (stereo not shown) [Compound 100]
2400

* * *

- Experiment description: Pharmacokinetic study of 157 (and metabolite endothal) in SD rats, iv and po; plasma, liver, brain
- Type: in vivo
- Test parameters: female, Sprague-Dawley (SD), rat, in vivo, po, 1.5 mg/kg, 157 in plasma, PO 1.5 mg/kg, rat 2; read-out: T1/2 (converted)
Result type: half-life (min)
Give the value in min but do not write min after it.

Name the reported half-life value associated with the compound CCCCCCCOC(=O)C1C2CCC(O2)C1C(=O)N1CCN(C)CC1 (stereo not shown)
22.2

* * *

- Experiment description: Pharmacokinetic study of 153 (and metabolite endothal) in SD rats, iv and po; plasma, liver, brain
- Assay type: in vivo
- Test parameters: female, SD, rat, in vivo, iv, 1.25 mg/kg, 153 in plasma, IV 1.25 mg/kg, rat 1; read-out: AUC
Result type: AUC (ng·h/mL)
Give the value in ng·h/mL but do not write ng·h/mL after it.

Name the reported AUC value associated with the compound CCCOC(=O)C1C2CCC(O2)C1C(=O)N1CCN(C)CC1 (stereo not shown)
303

* * *

- Test system: PP2A
- Experiment description: PP2A activity in mouse livers after IP dosing (PP2A immunoprecipitation phosphatase assay, malachite green)
- Format: in vivo, Balb/c mice
- Test parameters: high dose IP (mpk: 100 1.5, 113 2.2, 151 1.6, 157 2.0), 3 h, liver
Result type: Average Relative Activity (group, vehicle = 100)
Please state the value as a number alone, without comment.

Consider the reported Average Relative Activity (group, vehicle = 100) for these compounds:
Compound	Numeric value
CCCCCCCOC(=O)C1C2CCC(O2)C1C(=O)N1CCN(C)CC1 (stereo not shown) [Compound 157]	55.78
COC(=O)C1C2CCC(O2)C1C(=O)N1CCN(C)CC1 (stereo not shown) [Compound 151]	112.5
CN1CCN(C(=O)C2C3CCC(O3)C2C(=O)O)CC1 (stereo not shown) [Compound 100]	73.9

Name the reported Average Relative Activity (group, vehicle = 100) value associated with the compound CN1CCN(C(=O)C2C(C(=O)OCC(Cl)(Cl)Cl)[C@H]3CC[C@@H]2O3)CC1 (stereo partly shown) [Compound 113]
35.3

* * *

- Experiment description: Pharmacokinetic study of 157 (and metabolite endothal) in SD rats, iv and po; plasma, liver, brain
- Type: in vivo
- Test parameters: female, Sprague-Dawley (SD), rat, in vivo, iv, 1.5 mg/kg, 157 in Liver, iv 1.5 mg/kg, rat 2; read-out: T1/2 (converted)
Result type: half-life (h)
Give the value in h but do not write h after it.

Name the reported half-life value associated with the compound CCCCCCCOC(=O)C1C2CCC(O2)C1C(=O)N1CCN(C)CC1 (stereo not shown) [Compound 157]
1.17

* * *

- Experiment description: Pharmacokinetic study of 157 (and metabolite endothal) in SD rats, iv and po; plasma, liver, brain
- Type: in vivo
- Test parameters: female, Sprague-Dawley (SD), rat, in vivo, iv, 1.5 mg/kg, 157 in Liver, iv 1.5 mg/kg, rat 1; read-out: Cmax
Result type: Cmax (ng/g)
Give the value in ng/g but do not write ng/g after it.

Name the reported Cmax value associated with the compound CCCCCCCOC(=O)C1C2CCC(O2)C1C(=O)N1CCN(C)CC1 (stereo not shown) [Compound 157]
337
